# targetDesc: T1, RBFOX1 RRM (Homo sapiens, UniProt Q9NWB1 109-208)
# T1 sequence: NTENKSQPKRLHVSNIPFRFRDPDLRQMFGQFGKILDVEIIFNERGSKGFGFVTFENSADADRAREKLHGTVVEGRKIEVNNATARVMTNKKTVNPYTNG
# testProtocol: EMSA; HiTS-Eq, 1 nM pool, 10 min; buffer printed only for the single-RNA assays: 10 mM Tris pH 7.5, 150 mM NaCl, 3.4 mM EDTA, 0.001% NP-40, 30 C
# measurementContext: tags: His6 N-terminal (pET28a); label: 5' 32P
The full ranking holds about 16,000 sequences; the median of “ka relative to ugcaugu” is about 0.0091, and the highest 2% start at about 0.032. The sample as a whole holds a higher share of the highest values than the screen did.
reportedEndpoint: binding signal

INSERT INTO results (binder, reportedendpoint, datavalue) VALUES
  ('CUGGCGC (DNA:RNA) RNA: GGGAGACCGGAAUUCAGAUUGUCCCUGGCGCUUAAAUCCCGUCGUAGCCACCA DNA 1: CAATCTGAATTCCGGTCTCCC DNA 2: TGGTGGCTACGACGGGATT', 'binding signal', '0.02 KA relative to UGCAUGU'),
  ('GGGGGUG (DNA:RNA) RNA: GGGAGACCGGAAUUCAGAUUGUCCGGGGGUGUUAAAUCCCGUCGUAGCCACCA DNA 1: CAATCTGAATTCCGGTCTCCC DNA 2: TGGTGGCTACGACGGGATT', 'binding signal', '0.0397 KA relative to UGCAUGU'),
  ('CGGGGUG (DNA:RNA) RNA: GGGAGACCGGAAUUCAGAUUGUCCCGGGGUGUUAAAUCCCGUCGUAGCCACCA DNA 1: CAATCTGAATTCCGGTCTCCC DNA 2: TGGTGGCTACGACGGGATT', 'binding signal', '0.0399 KA relative to UGCAUGU'),
  ('CUGGCGG (DNA:RNA) RNA: GGGAGACCGGAAUUCAGAUUGUCCCUGGCGGUUAAAUCCCGUCGUAGCCACCA DNA 1: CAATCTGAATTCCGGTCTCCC DNA 2: TGGTGGCTACGACGGGATT', 'binding signal', '0.00866 KA relative to UGCAUGU'),
  ('ACGGGUG (DNA:RNA) RNA: GGGAGACCGGAAUUCAGAUUGUCCACGGGUGUUAAAUCCCGUCGUAGCCACCA DNA 1: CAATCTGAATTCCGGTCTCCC DNA 2: TGGTGGCTACGACGGGATT', 'binding signal', '0.0185 KA relative to UGCAUGU'),
  ('CCGGGUG (DNA:RNA) RNA: GGGAGACCGGAAUUCAGAUUGUCCCCGGGUGUUAAAUCCCGUCGUAGCCACCA DNA 1: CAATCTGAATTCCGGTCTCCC DNA 2: TGGTGGCTACGACGGGATT', 'binding signal', '0.0271 KA relative to UGCAUGU'),
  ('CGGGUGG (DNA:RNA) RNA: GGGAGACCGGAAUUCAGAUUGUCCCGGGUGGUUAAAUCCCGUCGUAGCCACCA DNA 1: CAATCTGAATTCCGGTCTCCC DNA 2: TGGTGGCTACGACGGGATT', 'binding signal', '0.0171 KA relative to UGCAUGU'),
  ('UGGCGGU (DNA:RNA) RNA: GGGAGACCGGAAUUCAGAUUGUCCUGGCGGUUUAAAUCCCGUCGUAGCCACCA DNA 1: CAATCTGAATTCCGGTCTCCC DNA 2: TGGTGGCTACGACGGGATT', 'binding signal', '0.0227 KA relative to UGCAUGU'),
  ('UGGGCGG (DNA:RNA) RNA: GGGAGACCGGAAUUCAGAUUGUCCUGGGCGGUUAAAUCCCGUCGUAGCCACCA DNA 1: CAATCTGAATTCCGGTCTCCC DNA 2: TGGTGGCTACGACGGGATT', 'binding signal', '0.0408 KA relative to UGCAUGU');
